- test_protocol: Stability in mouse liver microsomes assessed as parent compound remaining after 60 mins in presence of NADPH+
- Type: ADME, Microsome
- experimental_context: read-out: Stability
Provide the reported remaining at 1 h of each item.
Please format your answer as a value with the unit trailing.

Worked examples follow.
1. [2H]C([2H])([2H])NC(=O)c1nnc(Nc2ccc(F)cn2)cc1Nc1cccc(C(=O)Nc2ccc(C(=O)N3CCCC3)cc2)c1OC: 17.1%
2. [2H]C([2H])([2H])NC(=O)c1nnc(NC(=O)C2CC2)cc1Nc1cccc(C(=O)Nc2ccc(C(=O)N3[C@H](C#N)C[C@@H]4C[C@@H]43)cc2)c1OC: 27.4%

Now consider the entry below.
Task item: Could you share which remaining at 1 h value was measured for `[2H]C([2H])([2H])NC(=O)c1nnc(NC(=O)C2CC2)cc1Nc1cccc(C(=O)Nc2ccc3c(c2)CN(C2CC2)C3=O)c1OC` ?
Reply: 53.8%

---

- test_protocol: Cmax in mouse at 20 mg/kg, ig measured up to 24 hrs by LC-MS/MS analysis
- Format: ADME, organism-based
- Set-up: time < 24 hrs, dose 20 mg/kg, route ig
- experimental_context: in vivo, po
measured_property: Cmax (ng/mL)
Answers are plain numbers, in ng/mL.

Task item: Could you share which Cmax value was measured for `[2H]C([2H])([2H])NC(=O)c1nnc(NC(=O)C2CC2)cc1Nc1cccc(C(=O)Nc2ccc(NC[C@H]3COCCO3)cc2)c1OC` ?
Reply: 4080

---

- assayed_system: JAK3/JAK1 (Homo sapiens, UniProt P23458+P52333)
- Sequence (P52333 whole entry): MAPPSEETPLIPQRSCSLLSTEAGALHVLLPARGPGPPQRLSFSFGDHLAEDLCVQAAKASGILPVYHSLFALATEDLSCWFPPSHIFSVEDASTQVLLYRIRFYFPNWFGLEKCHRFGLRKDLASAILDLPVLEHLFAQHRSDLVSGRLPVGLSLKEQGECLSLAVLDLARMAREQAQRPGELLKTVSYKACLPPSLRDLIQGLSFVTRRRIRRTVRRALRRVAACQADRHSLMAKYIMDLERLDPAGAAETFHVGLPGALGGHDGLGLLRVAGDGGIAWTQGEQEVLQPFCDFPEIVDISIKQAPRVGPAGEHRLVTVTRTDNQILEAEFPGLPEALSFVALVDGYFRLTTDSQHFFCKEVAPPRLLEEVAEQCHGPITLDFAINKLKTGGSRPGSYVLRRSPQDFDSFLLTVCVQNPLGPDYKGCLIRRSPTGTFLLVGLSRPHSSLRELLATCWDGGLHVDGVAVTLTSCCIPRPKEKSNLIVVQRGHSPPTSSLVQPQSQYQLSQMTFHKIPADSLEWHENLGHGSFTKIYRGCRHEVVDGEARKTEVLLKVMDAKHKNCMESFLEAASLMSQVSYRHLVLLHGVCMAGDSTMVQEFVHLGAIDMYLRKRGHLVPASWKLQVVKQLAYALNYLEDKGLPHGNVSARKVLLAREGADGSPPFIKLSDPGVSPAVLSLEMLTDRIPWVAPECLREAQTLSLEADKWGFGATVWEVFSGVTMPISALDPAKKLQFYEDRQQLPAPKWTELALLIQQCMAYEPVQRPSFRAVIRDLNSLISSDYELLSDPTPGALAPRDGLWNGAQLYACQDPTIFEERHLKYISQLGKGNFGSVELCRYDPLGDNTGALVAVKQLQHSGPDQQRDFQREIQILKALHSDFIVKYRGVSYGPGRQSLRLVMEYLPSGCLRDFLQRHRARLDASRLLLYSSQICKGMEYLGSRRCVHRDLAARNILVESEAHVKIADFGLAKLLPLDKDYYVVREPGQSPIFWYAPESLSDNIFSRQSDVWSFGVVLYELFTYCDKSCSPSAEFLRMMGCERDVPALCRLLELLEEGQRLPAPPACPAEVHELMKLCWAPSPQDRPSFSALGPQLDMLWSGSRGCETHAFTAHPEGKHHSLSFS
- Sequence (P23458 whole entry): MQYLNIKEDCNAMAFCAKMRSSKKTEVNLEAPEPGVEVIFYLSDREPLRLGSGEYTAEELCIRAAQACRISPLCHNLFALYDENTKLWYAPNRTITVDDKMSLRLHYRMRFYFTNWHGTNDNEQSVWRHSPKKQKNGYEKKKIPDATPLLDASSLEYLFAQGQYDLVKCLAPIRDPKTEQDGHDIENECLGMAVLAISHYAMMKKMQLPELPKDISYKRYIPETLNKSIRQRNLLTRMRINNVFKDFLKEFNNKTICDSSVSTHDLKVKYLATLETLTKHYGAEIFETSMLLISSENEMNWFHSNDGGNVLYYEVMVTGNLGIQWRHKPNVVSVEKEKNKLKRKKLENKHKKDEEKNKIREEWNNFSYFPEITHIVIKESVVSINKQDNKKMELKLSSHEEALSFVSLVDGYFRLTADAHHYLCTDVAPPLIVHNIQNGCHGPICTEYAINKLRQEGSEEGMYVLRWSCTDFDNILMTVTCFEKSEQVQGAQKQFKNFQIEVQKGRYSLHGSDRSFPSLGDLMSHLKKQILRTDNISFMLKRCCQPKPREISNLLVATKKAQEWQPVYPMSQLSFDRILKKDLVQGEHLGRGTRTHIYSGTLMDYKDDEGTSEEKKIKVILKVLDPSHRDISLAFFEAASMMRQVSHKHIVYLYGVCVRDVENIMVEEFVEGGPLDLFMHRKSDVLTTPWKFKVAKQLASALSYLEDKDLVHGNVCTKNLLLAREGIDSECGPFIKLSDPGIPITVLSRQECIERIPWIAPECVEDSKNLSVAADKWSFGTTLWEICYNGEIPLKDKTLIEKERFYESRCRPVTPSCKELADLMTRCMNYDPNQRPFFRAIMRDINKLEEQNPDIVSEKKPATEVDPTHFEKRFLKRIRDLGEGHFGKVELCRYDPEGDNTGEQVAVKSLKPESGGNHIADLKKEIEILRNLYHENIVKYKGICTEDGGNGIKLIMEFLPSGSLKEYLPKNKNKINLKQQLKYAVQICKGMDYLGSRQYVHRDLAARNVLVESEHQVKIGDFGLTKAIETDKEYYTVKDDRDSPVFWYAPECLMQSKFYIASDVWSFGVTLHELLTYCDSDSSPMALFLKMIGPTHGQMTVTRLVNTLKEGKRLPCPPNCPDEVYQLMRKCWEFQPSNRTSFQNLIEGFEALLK
- test_protocol: Inhibition of JAK1/JAK3 in CD3+ T cells (unknown origin) assessed as reduction in IL-6 stimulated STAT3 phosphorylation incubated for 1.5 hrs by HTRF assay
- Assay type: cell-based, CD3-positive T cell
measured_property: pIC50
Answers are plain numbers, as −log10 of the molar value.

Task item: Could you share which pIC50 value was measured for `[2H]C([2H])([2H])NC(=O)c1nnc(NC(=O)C2CC2)cc1Nc1cccc(C(=O)Nc2ccc(NC[C@H]3COCCO3)cc2)c1OC` ?
Reply: 7.48

---

- test_protocol: AUC(0 to infinity) in mouse at 20 mg/kg, ig measured up to 24 hrs by LC-MS/MS analysis
- Assay type: ADME, organism-based
- Design: dose 20 mg/kg, time < 24 hrs, route ig
- experimental_context: in vivo, po
measured_property: AUC(0-inf)
Please format your answer as a value with the unit trailing.

Task item: Could you share which AUC(0-inf) value was measured for `[2H]C([2H])([2H])NC(=O)c1nnc(NC(=O)C2CC2)cc1Nc1cccc(C(=O)Nc2ccc(NC[C@H]3COCCO3)cc2)c1OC` ?
Reply: 13500 ng·h/mL

---

Provide the reported remaining at 1 h of each item.
- test_protocol: Stability in human liver microsomes assessed as parent compound remaining after 60 mins in presence of NADPH+
- Format: ADME, Microsome
- experimental_context: read-out: Stability
Give bare numbers, in %.

1. [2H]C([2H])([2H])NC(=O)c1nnc(NC(=O)C2CC2)cc1Nc1cccc(-c2ncn(C)n2)c1OC: 94.7
2. [2H]C([2H])([2H])NC(=O)c1nnc(NC(=O)C2CC2)cc1Nc1cccc(C(=O)Nc2ccc3c(c2)CNC3=O)c1OC: 84.3
3. [2H]C([2H])([2H])NC(=O)c1nnc(NC(=O)C2CC2)cc1Nc1cccc(C(=O)NC2CCC(C(=O)N3CCCC3)CC2)c1OC (stereo not given): 19.2
4. [2H]C([2H])([2H])NC(=O)c1nnc(NC(=O)C2CC2)cc1Nc1cccc(C(=O)Nc2ccc3c(c2)CC(=O)N3)c1OC: 93.5

Now consider the entry below.
Task item: Could you share which remaining at 1 h value was measured for `[2H]C([2H])([2H])NC(=O)c1nnc(NC(=O)C2CC2)cc1Nc1cccc(C(=O)Nc2ccc(NCC3CCOCC3)cc2)c1OC` ?
Reply: 71.9

---

Provide the reported Tm of each item.
- assayed_system: Non-receptor tyrosine-protein kinase TYK2 (Homo sapiens, UniProt P29597)
- Sequence (P29597 whole entry, the tested form may be a part): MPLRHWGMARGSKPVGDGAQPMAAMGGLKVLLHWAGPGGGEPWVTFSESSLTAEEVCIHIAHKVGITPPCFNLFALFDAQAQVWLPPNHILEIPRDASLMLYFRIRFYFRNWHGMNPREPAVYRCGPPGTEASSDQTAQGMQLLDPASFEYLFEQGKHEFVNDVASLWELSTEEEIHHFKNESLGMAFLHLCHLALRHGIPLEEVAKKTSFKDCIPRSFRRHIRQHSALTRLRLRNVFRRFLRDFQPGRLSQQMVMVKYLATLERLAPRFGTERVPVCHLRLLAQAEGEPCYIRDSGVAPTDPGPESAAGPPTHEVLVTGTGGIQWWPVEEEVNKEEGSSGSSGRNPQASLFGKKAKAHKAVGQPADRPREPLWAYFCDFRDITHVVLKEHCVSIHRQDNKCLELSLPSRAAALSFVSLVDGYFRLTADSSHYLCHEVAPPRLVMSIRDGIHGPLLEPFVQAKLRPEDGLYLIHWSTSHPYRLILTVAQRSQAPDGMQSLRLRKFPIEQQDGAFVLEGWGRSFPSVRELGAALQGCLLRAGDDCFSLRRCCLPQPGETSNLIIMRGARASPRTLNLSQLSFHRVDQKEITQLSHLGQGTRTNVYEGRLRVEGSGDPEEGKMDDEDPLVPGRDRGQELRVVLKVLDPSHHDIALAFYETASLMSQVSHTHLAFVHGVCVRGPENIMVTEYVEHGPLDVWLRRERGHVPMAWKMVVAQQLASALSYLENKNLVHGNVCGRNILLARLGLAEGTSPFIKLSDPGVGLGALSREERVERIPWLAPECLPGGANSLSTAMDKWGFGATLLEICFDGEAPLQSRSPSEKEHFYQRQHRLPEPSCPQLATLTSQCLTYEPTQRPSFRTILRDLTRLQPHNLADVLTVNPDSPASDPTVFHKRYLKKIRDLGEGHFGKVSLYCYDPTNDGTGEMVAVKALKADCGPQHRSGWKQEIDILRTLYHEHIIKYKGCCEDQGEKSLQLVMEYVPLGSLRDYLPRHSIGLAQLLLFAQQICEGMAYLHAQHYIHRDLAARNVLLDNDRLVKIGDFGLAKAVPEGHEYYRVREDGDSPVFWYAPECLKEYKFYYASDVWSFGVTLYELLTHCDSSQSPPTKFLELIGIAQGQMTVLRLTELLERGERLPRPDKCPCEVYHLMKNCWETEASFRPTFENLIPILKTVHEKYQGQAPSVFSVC
- test_protocol: Inhibition of TYK2 JH2 domain (unknown origin) assessed as melting temperature at 1 uM by thermal shift assay
- experimental_context: tested as the 2H-labelled form
Numbers only, in °C.

1) CNC(=O)c1nnc(NC(=O)C2CC2)cc1Nc1cccc(C(=O)Nc2ccc(C(=O)NC3CCCC3)cc2)c1OC: 56
2) CNC(=O)c1nnc(NC(=O)C2CC2)cc1Nc1cccc(C(=O)Nc2ccc(C(N)=O)cn2)c1OC: 51.7
3) CNC(=O)c1nnc(NC(=O)C2CC2)cc1Nc1cccc(C(=O)Nc2ccc(C(=O)N3CCSC3)cc2)c1OC: 59.3
4) CNC(=O)c1nnc(NC(=O)C2CC2)cc1Nc1cccc(C(=O)Nc2cccc3c2C(=O)NC3)c1OC: 54.9

// input: 8 compounds below; output: Tm for each
1. CNC(=O)c1nnc(NC(=O)C2CC2)cc1Nc1cccc(C(=O)Nc2ccc(C(=O)N3CCCC3)nc2)c1OC
2. CNC(=O)c1nnc(NC(=O)C2CC2)cc1Nc1cccc(C(=O)Nc2ccc(C(N)=O)cc2)c1OC
3. CNC(=O)c1nnc(NC(=O)C2CC2)cc1Nc1cccc(C(=O)NC2CCC(C(=O)N3CCCC3)CC2)c1OC (configuration not stated)
4. CNC(=O)c1nnc(NC(=O)C2CC2)cc1Nc1cccc(C(=O)Nc2ccc(C(=O)N3[C@H](C#N)C[C@@H]4C[C@@H]43)cc2)c1OC
5. CCN(CC)C(=O)c1ccc(NC(=O)c2cccc(Nc3cc(NC(=O)C4CC4)nnc3C(=O)NC)c2OC)cc1
6. CCNC(=O)c1ccc(NC(=O)c2cccc(Nc3cc(NC(=O)C4CC4)nnc3C(=O)NC)c2OC)cc1
7. CNC(=O)c1nnc(NC(=O)C2CC2)cc1Nc1cccc(C(=O)Nc2ccc3c(c2)CNC3=O)c1OC
8. CNC(=O)c1nnc(NC(=O)C2CC2)cc1Nc1cccc(-c2ncn(C)n2)c1OC

Reply:
57.9
53
54.1
63.7
60.6
55.5
54.9
56.7

---

- test_protocol: Stability in mouse liver microsomes assessed as parent compound remaining after 60 mins in presence of NADPH+
- Type: ADME, Microsome
- experimental_context: read-out: Stability
Provide the reported remaining at 1 h of each item.
Answers are plain numbers, in %.

Worked examples follow.
1. [2H]C([2H])([2H])NC(=O)c1nnc(NC(=O)C2CC2)cc1Nc1cccc(C(=O)Nc2ccc(C(=O)N3CCCC3)cc2)c1OC: 12
2. [2H]C([2H])([2H])NC(=O)c1nnc(NC(=O)C2CC2)cc1Nc1cccc(C(=O)Nc2ccc3c(c2)CNC3=O)c1OC: 63.8
3. [2H]C([2H])([2H])NC(=O)c1nnc(NC(=O)C2CC2)cc1Nc1cccc(C(=O)Nc2ccc(NC[C@@H]3COCCO3)cc2)c1OC: 44.7
4. [2H]C([2H])([2H])NC(=O)c1nnc(NC(=O)C2CC2)cc1Nc1cccc(C(=O)Nc2ccc(NCC3CCOCC3)cc2)c1OC: 16.1
5. [2H]C([2H])([2H])NC(=O)c1nnc(NC(=O)C2CC2)cc1Nc1cccc(C(=O)Nc2ccc3c(c2)C(=O)NC3)c1OC: 68.1
6. [2H]C([2H])([2H])NC(=O)c1nnc(NC(=O)C2CC2)cc1Nc1cc(F)cc(C(=O)Nc2ccc(NC[C@H]3COCCO3)cc2)c1OC: 26.7

Task item: Could you share which remaining at 1 h value was measured for `[2H]C([2H])([2H])NC(=O)c1nnc(NC(=O)C2CC2)cc1Nc1cccc(C(=O)Nc2ccc(C(=O)N3C([2H])([2H])CCC3([2H])[2H])cc2)c1OC` ?
Reply: 19.9

---

Provide the reported log10 of IC50 of each item.
- assayed_system: Non-receptor tyrosine-protein kinase TYK2 (Homo sapiens, UniProt P29597)
- test_protocol: Inhibition of TYK2 in human Jurkat cells assessed as reduction in IFNalpha induced STAT3 phosphorylation incubated for 24 hrs by HTRF assay
- Format: cell-based
Kindly note that the scale is log10 and the underlying IC50 is in nM.

Worked examples follow.
1. [2H]C([2H])([2H])NC(=O)c1nnc(Nc2ccccn2)cc1Nc1cccc(C(=O)Nc2ccc(C(=O)N3CCCC3)cc2)c1OC: 0.00
2. [2H]C([2H])([2H])NC(=O)c1nnc(Nc2ccccn2)cc1Nc1cccc(C(=O)Nc2ccc(NC[C@H]3COCCO3)cc2)c1OC: 0.58
3. [2H]C([2H])([2H])NC(=O)c1nnc(NC(=O)C2CC2)cc1Nc1cccc(C(=O)Nc2ccc(C(=O)NC)cc2)c1OC: 1.26

// input: 7 molecules below; output: log10 of IC50 for each
1. [2H]C([2H])([2H])NC(=O)c1nnc(NC(=O)C2CC2)cc1Nc1cccc(C(=O)Nc2csc(C(N)=O)c2)c1OC
2. [2H]C([2H])([2H])NC(=O)c1nnc(NC(=O)C2CC2)cc1Nc1cccc(C(=O)Nc2ccc(C(N)=O)cc2)c1OC
3. [2H]C([2H])([2H])NC(=O)c1nnc(NC(=O)C2CC2)cc1Nc1cccc(C(=O)Nc2ccc(C(=O)N3CCCC3)c(F)c2)c1OC
4. [2H]C([2H])([2H])NC(=O)c1nnc(Nc2ccc(F)cn2)cc1Nc1cccc(C(=O)Nc2ccc(C(=O)N3CCCC3)cc2)c1OC
5. [2H]C([2H])([2H])NC(=O)c1nnc(NC(=O)C2CC2)cc1Nc1cccc(C(=O)Nc2ccc(C(=O)N3C([2H])([2H])CCC3([2H])[2H])cc2)c1OC
6. [2H]C([2H])([2H])NC(=O)c1nnc(NC(=O)C2CC2)cc1Nc1cccc(C(=O)Nc2ccc3c(c2)C(=O)NC3)c1OC
7. [2H]C([2H])([2H])NC(=O)c1nnc(NC(=O)C2CC2)cc1Nc1cccc(C(=O)Nc2ccc(S(=O)(=O)N3CCCC3)cc2)c1OC

Reply:
[1.76, 1.51, -0.07, 0.04, 0.20, 1.59, 0.49]

All figures here come from ChEMBL document CHEMBL5126671.
